Target: T1, NativeRPtag(large)_with_Tags_and_Cys (Thermoanaerobacter tengcongensis)
T1 construct: Unlabeled in anisotropy assays; coupled through the engineered N-terminal Cys to SulfoLink agarose or maleimide plates in column, pull-down and ELISA assays
T1 chain: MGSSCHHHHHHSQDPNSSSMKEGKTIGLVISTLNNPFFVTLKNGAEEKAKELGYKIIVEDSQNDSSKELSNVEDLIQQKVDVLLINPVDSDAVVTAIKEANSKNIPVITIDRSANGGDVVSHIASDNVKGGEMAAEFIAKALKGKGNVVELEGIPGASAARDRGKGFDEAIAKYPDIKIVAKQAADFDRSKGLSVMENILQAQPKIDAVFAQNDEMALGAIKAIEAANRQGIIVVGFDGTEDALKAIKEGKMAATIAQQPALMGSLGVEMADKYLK
Assay: fluorescence anisotropy, association kinetics
No end group written: not given here. *: point of attachment. RhodamineB = CCN(CC)c1ccc2c(-c3ccccc3C(=O)*)c3ccc(=[N+](CC)CC)cc-3oc2c1
Entry flag: Criterion met if Keq (S-S*) reaches 2; Criterion not met if it does not.

Example results:
>>> category_label("RhodamineB-GEKIPNFIPAELKLITK [RPtag(small) Cd4]")
"Criterion not met"
>>> category_label("RhodamineB-GEKIPNFIAAELKLITKENVQ [RPtag(small) p9a]")
"Criterion met"
>>> category_label("RhodamineB-KIANFIPAELKLITKE [RPtag(small) Nd2, Cd3, p5a]")
"Criterion not met"
>>> category_label("RhodamineB-GEKIPNAIPAELKLITKENVQ [RPtag(small) f7a]")
"Criterion met"
>>> category_label("RhodamineB-GEKIPNFIPAELKLITKEN [RPtag(small) Cd2]")
"Criterion met"

Qu. Hello, I need to know if RhodamineB-EKIPNFIPAELKLITKENVQ [RPtag(small) Nd1] has measured Keq (S-S*) not below 2. Thanks!
Ans. Criterion met
